The reported numbers originate from paper PMC6421704.

target: FGFR1 (Homo sapiens, UniProt P11362)
Sequence (P11362 22-822): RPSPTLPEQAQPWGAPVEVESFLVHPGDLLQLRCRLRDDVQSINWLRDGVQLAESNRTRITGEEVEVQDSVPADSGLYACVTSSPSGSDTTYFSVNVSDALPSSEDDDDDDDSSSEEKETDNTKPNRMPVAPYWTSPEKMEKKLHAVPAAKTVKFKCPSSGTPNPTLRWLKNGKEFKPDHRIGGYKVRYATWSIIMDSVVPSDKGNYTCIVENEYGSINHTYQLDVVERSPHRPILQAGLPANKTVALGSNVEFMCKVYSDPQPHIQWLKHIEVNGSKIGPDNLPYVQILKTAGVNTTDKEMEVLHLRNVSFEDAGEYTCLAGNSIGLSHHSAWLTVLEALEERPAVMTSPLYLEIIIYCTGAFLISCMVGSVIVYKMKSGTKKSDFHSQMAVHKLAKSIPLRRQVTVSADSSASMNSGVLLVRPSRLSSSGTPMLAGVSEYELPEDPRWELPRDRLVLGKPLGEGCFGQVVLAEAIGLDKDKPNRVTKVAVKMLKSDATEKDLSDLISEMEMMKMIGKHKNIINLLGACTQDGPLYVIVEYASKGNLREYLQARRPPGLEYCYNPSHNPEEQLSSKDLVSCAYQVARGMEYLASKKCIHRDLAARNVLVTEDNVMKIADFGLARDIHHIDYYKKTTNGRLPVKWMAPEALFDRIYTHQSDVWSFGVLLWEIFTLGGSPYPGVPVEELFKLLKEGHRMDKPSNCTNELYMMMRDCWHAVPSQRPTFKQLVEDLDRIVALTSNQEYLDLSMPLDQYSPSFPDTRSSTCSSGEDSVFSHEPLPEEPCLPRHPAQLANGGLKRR
pIC50: −log10 of the molar value.
RECORDED METRIC: pIC50

chemical_string=Cc1ccccc1NS(=O)(=O)c1ccc2c(c1)/C(=C/c1nc3ccccc3[nH]1)C(=O)N2 recorded_metric=pIC50 obs_value="< 5.00"

----------
molecular target: InsR (Homo sapiens, UniProt P06213)
Sequence (P06213 28-1382): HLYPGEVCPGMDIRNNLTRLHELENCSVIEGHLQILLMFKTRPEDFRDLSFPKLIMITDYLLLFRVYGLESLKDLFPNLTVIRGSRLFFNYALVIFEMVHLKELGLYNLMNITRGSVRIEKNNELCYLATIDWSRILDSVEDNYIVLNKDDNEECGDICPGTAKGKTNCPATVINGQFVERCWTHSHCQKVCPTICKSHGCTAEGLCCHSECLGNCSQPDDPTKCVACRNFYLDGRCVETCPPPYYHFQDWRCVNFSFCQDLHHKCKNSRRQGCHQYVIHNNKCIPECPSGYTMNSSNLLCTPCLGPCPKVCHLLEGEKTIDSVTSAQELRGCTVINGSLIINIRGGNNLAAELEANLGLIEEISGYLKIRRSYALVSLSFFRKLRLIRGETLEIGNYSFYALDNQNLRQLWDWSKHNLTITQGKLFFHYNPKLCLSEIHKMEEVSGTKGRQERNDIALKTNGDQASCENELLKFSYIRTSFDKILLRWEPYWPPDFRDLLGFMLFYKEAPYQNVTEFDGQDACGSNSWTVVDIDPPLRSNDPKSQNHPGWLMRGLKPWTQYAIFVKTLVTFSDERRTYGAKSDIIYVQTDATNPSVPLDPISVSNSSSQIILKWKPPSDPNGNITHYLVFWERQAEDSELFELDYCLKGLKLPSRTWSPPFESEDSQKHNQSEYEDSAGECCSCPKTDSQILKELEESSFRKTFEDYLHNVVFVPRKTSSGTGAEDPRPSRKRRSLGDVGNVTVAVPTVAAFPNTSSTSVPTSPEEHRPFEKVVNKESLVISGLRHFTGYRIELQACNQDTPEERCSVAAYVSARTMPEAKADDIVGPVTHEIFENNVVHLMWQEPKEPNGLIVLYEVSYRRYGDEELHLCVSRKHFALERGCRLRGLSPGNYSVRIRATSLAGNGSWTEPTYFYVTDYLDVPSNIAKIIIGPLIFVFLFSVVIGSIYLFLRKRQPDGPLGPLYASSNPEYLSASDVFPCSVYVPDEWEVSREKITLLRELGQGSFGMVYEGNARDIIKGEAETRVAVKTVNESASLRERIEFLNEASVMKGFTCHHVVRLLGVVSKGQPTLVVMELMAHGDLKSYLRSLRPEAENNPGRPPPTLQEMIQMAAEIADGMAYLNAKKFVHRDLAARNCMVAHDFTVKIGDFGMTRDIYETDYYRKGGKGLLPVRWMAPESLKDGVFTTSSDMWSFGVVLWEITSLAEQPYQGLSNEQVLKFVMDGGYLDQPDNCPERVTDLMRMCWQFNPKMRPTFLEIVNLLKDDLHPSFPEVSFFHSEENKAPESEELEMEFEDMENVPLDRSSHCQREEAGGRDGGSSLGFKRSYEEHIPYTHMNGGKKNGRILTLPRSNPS
pIC50: −log10 of the molar value.
RECORDED METRIC: pIC50

chemical_string=Cc1ccccc1NS(=O)(=O)c1ccc2c(c1)/C(=C/c1nc3ccccc3[nH]1)C(=O)N2 obs_value="< 5.00"

----------
Target: UniProtKB P54762
Sequence (P54762 18-984): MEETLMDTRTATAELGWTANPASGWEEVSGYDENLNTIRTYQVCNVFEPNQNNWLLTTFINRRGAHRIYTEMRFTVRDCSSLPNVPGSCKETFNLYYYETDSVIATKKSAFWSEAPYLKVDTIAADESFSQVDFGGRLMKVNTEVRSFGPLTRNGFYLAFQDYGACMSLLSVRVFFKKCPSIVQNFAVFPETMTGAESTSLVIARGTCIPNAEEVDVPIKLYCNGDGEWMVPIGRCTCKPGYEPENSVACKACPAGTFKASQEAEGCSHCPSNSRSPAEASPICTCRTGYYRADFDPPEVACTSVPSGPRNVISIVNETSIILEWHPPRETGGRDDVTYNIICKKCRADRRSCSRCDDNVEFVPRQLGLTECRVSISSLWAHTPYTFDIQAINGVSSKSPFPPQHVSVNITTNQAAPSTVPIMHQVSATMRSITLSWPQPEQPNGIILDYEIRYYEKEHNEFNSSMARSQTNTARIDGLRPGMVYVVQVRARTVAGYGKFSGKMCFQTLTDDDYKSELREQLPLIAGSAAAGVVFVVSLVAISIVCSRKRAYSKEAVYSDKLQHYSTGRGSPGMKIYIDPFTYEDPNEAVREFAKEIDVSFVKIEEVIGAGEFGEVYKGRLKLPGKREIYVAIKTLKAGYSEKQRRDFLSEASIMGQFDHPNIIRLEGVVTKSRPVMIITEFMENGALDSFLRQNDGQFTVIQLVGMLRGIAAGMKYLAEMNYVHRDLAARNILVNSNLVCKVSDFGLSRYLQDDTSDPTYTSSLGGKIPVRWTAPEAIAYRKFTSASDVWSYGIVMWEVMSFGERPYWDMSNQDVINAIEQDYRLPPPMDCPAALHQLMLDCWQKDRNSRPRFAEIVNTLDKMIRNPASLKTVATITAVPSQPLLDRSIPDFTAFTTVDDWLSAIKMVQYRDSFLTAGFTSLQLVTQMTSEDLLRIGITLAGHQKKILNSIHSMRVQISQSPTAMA
RECORDED METRIC: IC50

chemical_string=Cc1ccccc1NS(=O)(=O)c1ccc2c(c1)/C(=C/c1nc3ccccc3[nH]1)C(=O)N2 recorded_metric=IC50 obs_value="> 10 µM"

----------
biological target: C-KIT (Homo sapiens, UniProt P10721)
Sequence (P10721 26-976): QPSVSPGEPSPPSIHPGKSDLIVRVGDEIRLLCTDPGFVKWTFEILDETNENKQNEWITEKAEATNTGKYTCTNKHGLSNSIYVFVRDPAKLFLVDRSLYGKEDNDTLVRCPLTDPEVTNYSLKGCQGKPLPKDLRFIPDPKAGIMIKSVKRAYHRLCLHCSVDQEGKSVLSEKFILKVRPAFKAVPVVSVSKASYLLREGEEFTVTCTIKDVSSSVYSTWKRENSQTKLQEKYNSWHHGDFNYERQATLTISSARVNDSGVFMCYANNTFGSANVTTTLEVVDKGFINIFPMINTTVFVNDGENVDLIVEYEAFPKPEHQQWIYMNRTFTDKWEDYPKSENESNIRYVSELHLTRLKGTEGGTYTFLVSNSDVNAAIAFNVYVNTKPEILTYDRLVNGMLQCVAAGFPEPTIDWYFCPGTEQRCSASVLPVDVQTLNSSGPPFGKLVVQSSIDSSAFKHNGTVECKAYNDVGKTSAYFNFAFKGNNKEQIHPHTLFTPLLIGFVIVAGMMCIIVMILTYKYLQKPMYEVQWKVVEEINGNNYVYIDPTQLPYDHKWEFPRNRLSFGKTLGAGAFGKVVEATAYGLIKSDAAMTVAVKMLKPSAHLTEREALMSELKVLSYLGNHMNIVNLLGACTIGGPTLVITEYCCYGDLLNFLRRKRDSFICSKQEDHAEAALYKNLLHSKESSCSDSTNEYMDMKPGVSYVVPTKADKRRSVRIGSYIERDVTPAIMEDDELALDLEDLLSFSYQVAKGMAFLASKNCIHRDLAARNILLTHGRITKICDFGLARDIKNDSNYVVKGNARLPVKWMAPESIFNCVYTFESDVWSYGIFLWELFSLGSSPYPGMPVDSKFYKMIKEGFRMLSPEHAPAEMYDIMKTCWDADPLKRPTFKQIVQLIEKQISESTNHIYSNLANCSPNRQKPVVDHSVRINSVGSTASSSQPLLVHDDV
pIC50: −log10 of the molar value.
RECORDED METRIC: pIC50

chemical_string=Cc1ccccc1NS(=O)(=O)c1ccc2c(c1)/C(=C/c1nc3ccccc3[nH]1)C(=O)N2 system_tested="C-KIT (Homo sapiens, UniProt P10721)" obs_value="< 5.00"

----------
target: C-KIT(v654A) (Homo sapiens, UniProt P10721, V654A); test: In vitro kinase activity assay (Caliper assay format)
Sequence (P10721 26-976 V654A): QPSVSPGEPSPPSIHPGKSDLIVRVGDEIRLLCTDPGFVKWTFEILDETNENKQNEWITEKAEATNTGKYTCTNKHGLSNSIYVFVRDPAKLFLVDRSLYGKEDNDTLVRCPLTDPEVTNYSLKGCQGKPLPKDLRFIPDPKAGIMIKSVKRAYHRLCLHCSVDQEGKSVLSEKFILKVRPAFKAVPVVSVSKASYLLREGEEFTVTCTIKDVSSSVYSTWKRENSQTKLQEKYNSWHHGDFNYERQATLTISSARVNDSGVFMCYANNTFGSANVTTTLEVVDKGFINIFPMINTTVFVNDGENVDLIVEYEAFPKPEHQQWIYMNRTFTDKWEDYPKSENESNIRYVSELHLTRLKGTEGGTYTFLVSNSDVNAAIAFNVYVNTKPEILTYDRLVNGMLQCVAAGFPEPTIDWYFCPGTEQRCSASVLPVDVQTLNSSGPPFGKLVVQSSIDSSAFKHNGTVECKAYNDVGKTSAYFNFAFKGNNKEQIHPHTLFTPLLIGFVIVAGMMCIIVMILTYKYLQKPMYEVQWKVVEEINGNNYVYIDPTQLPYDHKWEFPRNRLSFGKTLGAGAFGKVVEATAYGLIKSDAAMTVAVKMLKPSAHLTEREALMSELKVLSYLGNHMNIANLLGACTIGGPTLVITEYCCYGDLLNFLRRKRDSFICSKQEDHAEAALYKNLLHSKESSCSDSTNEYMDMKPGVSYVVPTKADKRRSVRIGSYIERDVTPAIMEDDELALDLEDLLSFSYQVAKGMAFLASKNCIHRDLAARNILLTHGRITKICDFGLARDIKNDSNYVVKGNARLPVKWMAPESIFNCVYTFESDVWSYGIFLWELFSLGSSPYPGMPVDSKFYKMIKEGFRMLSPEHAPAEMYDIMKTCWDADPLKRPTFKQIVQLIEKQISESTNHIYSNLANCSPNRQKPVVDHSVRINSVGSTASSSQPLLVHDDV
pIC50: −log10 of the molar value.
RECORDED METRIC: pIC50

chemical_string=Cc1ccccc1NS(=O)(=O)c1ccc2c(c1)/C(=C/c1nc3ccccc3[nH]1)C(=O)N2 system_tested="C-KIT(v654A) (Homo sapiens, UniProt P10721, V654A)" obs_value="< 5.00"
